Quick reference for GI50 among some molecules
- System: LNCaP prostate cancer cells
- run-description: Cell viability assay (PrestoBlue) on LNCaP cells
- Assay type: cell-based, human
- condition-details: Homo sapiens, LNCaP, 72 h, 72 h treatment; PrestoBlue; mean of three independent experiments ± SEM; read-out: LNCaP GI50
Quick reminder: number only, in µM, skip the unit.

Consider the worked cases shown below.
{"smiles-data": "COC1=C2C[C@@H](C)C[C@H](OC)[C@H](O)[C@@H](C)/C=C(\\C)[C@H](OC(N)=O)[C@@H](OC)/C=C\\C=C(/C)C(=O)NC(=CC1=O)C2=O", "measured-result": 0.05}
{"smiles-data": "CN1CCc2c(c3ccccc3n2Cc2ccc(C(=O)NO)cc2)C1", "measured-result": 5.9}
{"smiles-data": "N#Cc1ccc(NC(=O)c2cccc(-c3noc(C(F)(F)F)n3)c2)c(O)c1", "measured-result": 9.5}

Look up and report measured GI50 for this entry: CC(C)[C@H](C(=O)NCc1ccc(C(=O)NO)cc1)N1Cc2ccccc2C1=O
41.3
